# System Name: Ubiquitin carboxyl-terminal hydrolase 8 (Homo sapiens) (UniProt P40818)
# Sequence (P40818 whole entry, looked up): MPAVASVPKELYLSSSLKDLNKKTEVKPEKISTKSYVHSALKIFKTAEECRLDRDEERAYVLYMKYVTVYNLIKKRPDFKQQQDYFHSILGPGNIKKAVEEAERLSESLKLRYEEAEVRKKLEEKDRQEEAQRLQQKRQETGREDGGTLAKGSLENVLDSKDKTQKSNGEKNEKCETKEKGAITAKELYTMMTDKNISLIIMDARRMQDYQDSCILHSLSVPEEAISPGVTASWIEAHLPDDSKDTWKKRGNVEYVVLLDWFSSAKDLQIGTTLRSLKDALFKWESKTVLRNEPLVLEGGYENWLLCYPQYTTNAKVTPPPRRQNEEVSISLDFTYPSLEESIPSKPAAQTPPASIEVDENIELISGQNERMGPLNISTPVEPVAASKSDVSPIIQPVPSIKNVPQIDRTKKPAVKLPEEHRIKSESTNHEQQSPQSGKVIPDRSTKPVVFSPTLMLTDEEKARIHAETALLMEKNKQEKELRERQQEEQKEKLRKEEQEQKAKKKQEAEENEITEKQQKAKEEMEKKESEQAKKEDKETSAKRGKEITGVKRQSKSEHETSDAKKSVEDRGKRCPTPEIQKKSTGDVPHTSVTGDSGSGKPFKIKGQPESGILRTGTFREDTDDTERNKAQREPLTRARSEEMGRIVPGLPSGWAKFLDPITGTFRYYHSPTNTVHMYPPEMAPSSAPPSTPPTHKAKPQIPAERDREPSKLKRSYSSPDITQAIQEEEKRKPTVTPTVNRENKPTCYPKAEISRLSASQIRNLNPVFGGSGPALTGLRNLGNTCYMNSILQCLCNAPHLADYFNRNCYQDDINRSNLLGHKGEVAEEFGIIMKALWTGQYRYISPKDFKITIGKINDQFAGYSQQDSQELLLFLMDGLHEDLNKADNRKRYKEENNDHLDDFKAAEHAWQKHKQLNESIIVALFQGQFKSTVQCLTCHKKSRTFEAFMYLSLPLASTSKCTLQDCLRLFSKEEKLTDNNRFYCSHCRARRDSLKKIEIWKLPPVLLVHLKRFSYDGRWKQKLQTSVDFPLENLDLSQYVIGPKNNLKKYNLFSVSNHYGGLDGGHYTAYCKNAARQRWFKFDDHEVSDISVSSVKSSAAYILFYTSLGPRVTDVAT
# Experimental Protocol: Ubiquitin-specific protease 8 inhibitors, concentration-effect, biochemical, validation of initial actives (AID 1645862);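 note: potency reflects inhibition of USP8 cleavage of a ubiquitin rhodamine substrate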
# Run Conditions: recombinant USP8 deubiquitinase activity assay
Activity calls are given as the source filed them. The rule behind the calls is not given here.
Hi! Could you answer with just one of these? active, inactive

Please state the recorded outcome for this compound: `O=C(CSc1nnc2ccc3ccccc3n12)c1ccc(Cl)cc1`
inactive

Check the results log: what was the call for `COc1ccccc1C(=O)Nc1ccc(-c2nc3ccccc3o2)c(O)c1` ?
inactive

Record lookup: outcome of this test for `CCCCCCCc1cc(OC(=O)c2c(CCCCCCC)cc(O)cc2O[C@@H]2O[C@H](CO)[C@H](O)[C@H](O)[C@H]2O)cc(O)c1C(=O)O` ?
active

Could you please tell me the result logged for `Cc1cccc(C(=O)OCC(=O)Nc2ccc3[nH]c(=O)[nH]c3c2)c1` in this assay?
inactive

Hi, sorry to bother you, what did the test record for `Cc1cccc(NC(=O)Nc2nnc(CC(=O)NCc3ccccc3)s2)c1` ?
inactive

Status in this test for COc1cc2c(oc(=O)c3cc(C)cc(OC)c32)c2c([C@@H]3OC(C)[C@@H](O)[C@@](C)(O)C3O)ccc(O)c12 (some centres undefined) ?
inactive

// param item: `O=c1[nH]c(C2CCN(S(=O)(=O)c3ccc(S(=O)(=O)NC4CC4)cc3)CC2)nc2c1nnn2Cc1c(Cl)cccc1Cl` ; yields the recorded call
inactive

Call for entry `O=C(Nc1cc(S(=O)(=O)Nc2ccc(Cl)cc2)ccc1O)c1cc2c(s1)CCC2` :
active

Query: recorded result category for `Cc1ccc(Cn2cc(C(=O)Nc3ccccc3C(N)=O)ccc2=O)cc1` in this test
active

Hey, what did the test say about `COc1ccc(CC(=O)Nc2c(NCc3ccccc3)c3ccccc3oc2=O)cc1` ?
active

Write down the call the test reported for this compound. Item: `CCn1cc2c(n1)c(=O)n(Cc1ccccc1)c(=O)n2CC(=O)Nc1ccc(C)cc1C`
active

Outcome? CCOC(=O)C1CCN(C(=O)c2ccc3c(c2)NC(=O)C2CCCN32)CC1 (centres undefined)
active

Please let me know the test result on file for `O=C(COc1ccccc1-c1nnc(-c2ccccc2)o1)NCCc1ccco1` .
active

Give the logged outcome of this assay for the following compound: `COc1ccc(-c2nc(SCC(=O)Oc3c(C)cccc3C)n3[nH]c(=O)cc3n2)cc1`
active

Which outcome was assigned to `COc1ccc(COc2ccc3c(C)c(CC(=O)N4CC[C@@]5(O)CCCC[C@H]5C4)c(=O)oc3c2)cc1` in this test?
inactive

What did the test return for `O=C(Nc1ccc(-c2nc3ccccc3o2)cc1)c1ccc(S(=O)(=O)N2CCc3ccccc3C2)cc1` ?
inactive

# lookup: test call for `COc1cc(NC(=O)Cc2ccccc2)ccc1NC(=O)c1cc2ccccc2o1`
inactive

For `O=C(Cn1c(=O)[nH]c2c(-c3ccc(F)cc3)c[nH]c2c1=O)NCc1ccc(F)cc1` , which call appears in the assay record?
inactive

Short answer needed: outcome of this test for `O=C(COc1ccccc1-c1nnc(-c2ccccc2)o1)NCc1ccco1` ?
active

Given `COc1ccc(-c2ccc3cc(C(=O)O)ccc3c2)cc1C12CC3CC(CC(C3)C1)C2` , state the outcome it received in this test.
active

Short answer needed: outcome of this test for `COc1ccc(CCNC(=O)Cn2c(=O)n(-c3ccc(CC(=O)NCCc4ccccc4)cc3)c(=O)c3ccccc32)cc1OC` ?
inactive

Hi, sorry to bother you, what did the test record for `Cc1ccc(CNC(=O)c2cccc(N3C(=O)N4CCc5c([nH]c6ccccc56)[C@@]4(C)C3=O)c2)cc1` ?
inactive

Answer briefly: the call reported for `COc1ccc2nc(-c3ccc(NC(=O)c4cccc(OC)c4OC)cc3)cn2n1` in this assay.
inactive

Look up the recorded call for `Cc1cc(-c2nnc(SCC(=O)Nc3ccc(Br)c(C)c3)n2N)n[nH]1` in this test.
inactive

Tell me the recorded outcome of this test for `O=C(/C=C/c1c(F)cccc1Cl)N1CCc2ccccc2C1` .
active

Recorded test call requested for COc1ccccc1CNC(=O)C1c2ccccc2C(=O)N1Cc1ccccc1C (centres undefined)
inactive

GET /call?item= `O=C(NCc1ccc(Br)cc1)c1cc(-c2cccnc2)n[nH]1` returns the recorded outcome of this test.
inactive

Call for entry O=C1CSC(c2ccc(F)cc2)c2c(n(C3CCCCCC3)[nH]c2=O)N1 (centres undefined) :
active

Could you kindly confirm the outcome this assay logged for `COc1ccc(OC)c(NC(=O)c2sc(-c3ccccc3)nc2C)c1` ?
inactive

Test call for this compound, please: `CCCn1c(=O)c2sccc2n2c(CCC(=O)N3CCc4ccccc4C3)nnc12`
inactive

What did the test return for CC1=C(C)C(c2c(-c3ccc(C)cc3)[nH]c3ccccc23)N(C(C)(C)C)C1=O (centres undefined) ?
inactive

Assay result, entry COC(=O)c1ccccc1NC(=O)CSc1nnc(CNc2ccc(F)cc2)n1CC1CCCO1 (centres undefined) — outcome?
inactive

How did this test come out for O=C(c1ccco1)N1CCCC1c1nc(-c2ccccc2)n[nH]1 (centres undefined) ?
inactive

Query: recorded result category for `CCc1cccc(NC(=O)Cc2nnc3ccc(-c4nc(C)no4)cn23)c1` in this test
inactive

Test call for this compound, please: CCC(C(=O)C(C)C(O)C(C)CCc1ccc(C)c(O)c1C(=O)O)C1OC(CC)(C2CCC(O)(CC)C(C)O2)CC1C (centres undefined)
inactive

State the result this test recorded for `COc1ccc(NC(=O)Cn2c(C)cc(=O)n3nc(-c4cccc(C)c4)nc23)cc1` .
inactive

Returns: the outcome recorded for `CO/C=C/C(=O)c1cc2cnc3c(=N)cc(NC(C)=O)c([nH]1)c23` in this assay.
active

State the result this test recorded for `COc1ccc(-c2nc(Cn3nnc(C(=O)Nc4ccc(C)c(C)c4)c3N)c(C)o2)cc1` .
inactive

// return assay outcome for `CCOc1ccc(Oc2nc(CN3CCCC3)nc3sc(C)c(C)c23)cc1`
inactive

---

# System Name: Ubiquitin carboxyl-terminal hydrolase 8 (Homo sapiens) (UniProt P40818)
# Experimental Protocol: Ubiquitin-specific protease 8 inhibitors, concentration-effect, biochemical, validation of initial actives (AID 1645862);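 note: potency reflects inhibition of USP8 cleavage of a ubiquitin rhodamine substrate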
# Run Conditions: recombinant USP8 deubiquitinase activity assay
Activity calls are given as the source filed them. The rule behind the calls is not given here.
Entry note: the call must match one of class 1 = active, class 0 = inactive

Record request — test call for `Cc1ncc(-c2ccc3c(c2)OCO3)c(-c2nccs2)n1`
class 0

Could you check what this test reported for Cc1cc(C(F)(F)F)n2nc(C3CCN(C(=O)c4cnn(C)c4C)C3)cc2n1 (centres undefined) ?
class 1

Call for entry `COc1cccc(C(=O)Cn2c(=O)n(CCCC(=O)NCc3ccco3)c(=O)c3ccc(Cl)cc32)c1` :
class 0

What did this assay record as the result for `Cc1ccc(C(=O)c2cn(CC(=O)Nc3ccc(F)c(F)c3)c3ccc(F)cc3c2=O)cc1` ?
class 0

Check the results log: what was the call for `CC[C@@H](C(=O)[C@@H](C)[C@@H](O)[C@H](C)CCc1ccc(C)c(O)c1C(=O)O)[C@@H]1O[C@](CC)([C@H]2CC[C@](O)(CC)[C@H](C)O2)C[C@@H]1C` ?
class 0

Called result for `CCn1c(SCC(=O)c2c(N)n(CC(C)C)c(=O)n(C)c2=O)nnc1-c1ccccc1`
class 0

Given `N#Cc1ccc(NC(=O)Nc2cccn(Cc3ccccc3Br)c2=O)cc1` , state the outcome it received in this test.
class 0

Each compound tested received a call. Report the one for `COc1cc(OC)cc(-c2nc(-c3cn(-c4cccc(F)c4)nn3)no2)c1` .
class 1

Per the records of this test, what outcome belongs to Cc1ccc(N2CC(c3nc4ccccc4n3CCOc3cccc(C)c3)CC2=O)cc1 (centres undefined) ?
class 0

Recorded test call requested for `COc1ccc(C(=O)COC(=O)c2cccc(NC(=O)c3ccc(Cl)cc3)c2)cc1`
class 0

Hi team, can someone confirm the assay call for `O=C(NCCc1nc2ccccc2n1Cc1ccccc1F)c1ccc(Cl)cc1` ?
class 0

Tell me the assay call for `Cc1cc(NC(=O)CSc2ncc(-c3cccc([N+](=O)[O-])c3)n2-c2cccc(Cl)c2)no1` please.
class 0

Identify the outcome logged in this assay for the compound shown: `O=C(c1cnc2ccccc2n1)N1CCC(S(=O)(=O)c2ccc(-c3ccco3)cc2)CC1`
class 0

Per the records of this test, what outcome belongs to `O=C(CCCc1nnc2c(=O)n(-c3cccc(F)c3)ccn12)NCc1ccc(Cl)cc1` ?
class 0

Check the results log: what was the call for `CCCCCCCc1cc(OC(=O)c2c(CCCCCCC)cc(O)cc2O[C@@H]2O[C@H](CO)[C@@H](O)[C@H](O)[C@H]2O)cc(O)c1C(=O)O` ?
class 1

Which outcome was entered for the compound `Cc1ccnc(NS(=O)(=O)c2ccc(NC(=O)c3ccc(S(=O)(=O)N(C)Cc4ccccc4)cc3)cc2)n1` in this test?
class 0

How did this test come out for `COc1ccc(C)cc1NC(=O)Nc1nnc(CC(=O)NCc2ccccc2)s1` ?
class 0

Which outcome was entered for the compound `O=c1cc(Cc2ccccc2)nc2c(-c3ccccc3)c(COc3ccccc3)[nH]n12` in this test?
class 0

Hi, sorry to bother you, what did the test record for `O=c1[nH]cccc1NS(=O)(=O)c1ccc(F)cc1` ?
class 0
